Target: Sialidase (Clostridium perfringens, UniProt P10481)
Sequence (P10481 whole entry): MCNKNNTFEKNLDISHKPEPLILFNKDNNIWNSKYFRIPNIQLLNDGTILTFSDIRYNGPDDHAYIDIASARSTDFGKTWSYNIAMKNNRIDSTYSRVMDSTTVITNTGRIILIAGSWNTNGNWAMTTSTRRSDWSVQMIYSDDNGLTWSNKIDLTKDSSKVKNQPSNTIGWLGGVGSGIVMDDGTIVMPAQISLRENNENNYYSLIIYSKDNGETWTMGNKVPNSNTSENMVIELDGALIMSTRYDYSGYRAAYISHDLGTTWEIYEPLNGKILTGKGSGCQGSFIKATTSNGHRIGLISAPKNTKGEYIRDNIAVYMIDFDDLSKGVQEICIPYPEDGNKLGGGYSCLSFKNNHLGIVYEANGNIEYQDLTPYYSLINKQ
readoutLabel: IC50 (nM)

1. C=CC(C)(C)c1c2c(c(O)c3c(=O)c4ccc(O)c(O)c4oc13)C=CC(C)(C)O2 = 186
2. C=CC(C)(C)c1c(O)cc2oc3c(CC=C(C)C)c(O)c(O)cc3c(=O)c2c1O = 228
3. C=CC(C)(C)c1c(O)cc(O)c2c(=O)c3c(CC=C(C)C)c(O)c(O)cc3oc12 = 245
4. C=CC(C)(C)c1c(O)cc2oc3cc(O)c(O)c(CC=C(C)C)c3c(=O)c2c1O = 80
5. O=c1c2cc(O)c(O)cc2oc2cc(O)c([C@@H]3O[C@H](CO)[C@@H](O)[C@H](O)[C@H]3O)c(O)c12 = 16200
6. O=c1c(O)c(-c2ccc(O)c(O)c2)oc2cc(O)cc(O)c12 = 2700
7. O=c1cc(-c2ccc(O)cc2)oc2cc(O)cc(O)c12 = 17400
8. CC(C)=CCc1c(O)c(O)cc2c(=O)c3c(O)c4c(cc3oc12)OC(C)C4(C)C (stereo not drawn) = 186

Data origin, for the record: ChEMBL document CHEMBL1153970
